# protocol: Inactivation of human alkyltransferase in presence of DNA
endpoint: EC50 (µM)
Please give a number only; it is taken to be in µM.

Problem: Which EC50 is listed for Nc1nc(OCc2ccccc2)c2ncn([C@H]3C[C@H](O)[C@@H](COC(=O)CC[C@H](NC(=O)c4ccc(NCc5cnc6nc(N)[nH]c(=O)c6n5)cc4)C(=O)O)O3)c2n1 ?
Result: 3.06

---

# Species: Homo sapiens
# protocol: Inactivation of human alkyltransferase in absence of DNA
endpoint: log10(ED50) (log10 of the value in µM)
Log scale reminder: ED50 in µM, then log10 taken.

Problem: log10(ED50) lookup needed for Nc1nc(OCc2ccccc2)c2nc[nH]c2n1 , thanks.
Result: -0.52

Problem: Data request, read-out log10(ED50), for Nc1nc(OCc2ccc(COC(=O)CC[C@H](NC(=O)c3ccc(NCc4cnc5nc(N)[nH]c(=O)c5n4)cc3)C(=O)O)cc2)c2nc[nH]c2n1
Result: -0.15

Problem: Recorded log10(ED50) for Nc1nc(OCc2ccccc2)c2ncn([C@H]3C[C@H](OC(=O)CC[C@H](NC(=O)c4ccc(NCc5cnc6nc(N)[nH]c(=O)c6n5)cc4)C(=O)O)[C@@H](CO)O3)c2n1 , please?
Result: -1.80

Problem: What value of measured log10(ED50) is listed for Nc1nc(OCc2ccccc2)c2ncn([C@H]3C[C@H](O)[C@@H](COC(=O)CC[C@H](NC(=O)c4ccc(NCc5cnc6nc(N)[nH]c(=O)c6n5)cc4)C(=O)O)O3)c2n1 ?
Result: -0.19

Problem: Please give the measured log10(ED50) for this molecule: Nc1nc(OCc2ccccc2)c2ncn([C@H]3C[C@H](O)[C@@H](CO)O3)c2n1
Result: 0.30

Problem: Which log10(ED50) is reported for this molecule? Nc1nc(OCc2ccc(CO)cc2)c2nc[nH]c2n1
Result: -0.40

---

# Species on record: Homo sapiens
# protocol: Inactivation of human alkyltransferase in presence of DNA
endpoint: ED50
Units required after the number.

For orientation, consider the following solved cases.
1. Nc1nc(OCc2ccccc2)c2ncn([C@H]3C[C@H](O)[C@@H](CO)O3)c2n1 : 40000 nM
2. Nc1nc(OCc2ccccc2)c2ncn([C@H]3C[C@H](OC(=O)CC[C@H](NC(=O)c4ccc(NCc5cnc6nc(N)[nH]c(=O)c6n5)cc4)C(=O)O)[C@@H](CO)O3)c2n1 : 680 nM

Problem: Tell me the measured ED50 of Nc1nc(OCc2ccccc2)c2nc[nH]c2n1 , please.
Result: 100 nM

Problem: Entry Nc1nc(OCc2ccc(CO)cc2)c2nc[nH]c2n1 has what ED50?
Result: 100 nM

Problem: Consider the molecule shown here: Nc1nc(OCc2ccc(COC(=O)CC[C@H](NC(=O)c3ccc(NCc4cnc5nc(N)[nH]c(=O)c5n4)cc3)C(=O)O)cc2)c2nc[nH]c2n1 What is its recorded ED50?
Result: 240 nM

Origin of measurements: ChEMBL document CHEMBL1148823
